Target: Lys251 alpha-2AAR (Homo sapiens, UniProt P08913, N266K)
Sequence (P08913 16-465 N266K): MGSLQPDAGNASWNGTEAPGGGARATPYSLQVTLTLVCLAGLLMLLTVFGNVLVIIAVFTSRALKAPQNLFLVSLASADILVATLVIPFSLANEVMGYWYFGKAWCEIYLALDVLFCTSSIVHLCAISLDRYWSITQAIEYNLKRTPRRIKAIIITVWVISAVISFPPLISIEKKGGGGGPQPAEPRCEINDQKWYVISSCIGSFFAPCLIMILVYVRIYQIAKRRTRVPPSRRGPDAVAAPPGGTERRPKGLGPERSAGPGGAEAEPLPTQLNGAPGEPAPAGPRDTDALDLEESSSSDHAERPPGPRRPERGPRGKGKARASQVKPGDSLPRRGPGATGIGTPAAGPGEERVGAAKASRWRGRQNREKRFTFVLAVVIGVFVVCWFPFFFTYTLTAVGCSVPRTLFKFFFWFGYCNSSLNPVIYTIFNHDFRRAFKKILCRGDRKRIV
Assay: [35S]GTPyS binding, COS-7 membranes coexpressing receptor and Gi alpha2
Format: biochemical
Parameters: expressed in transfected cells; membranes or intact cells
Conditions: 10 μM agonist
enhanced [35S]GTPyS binding for the Lys251 receptor as compared to the Asn251 receptor for assorted molecules
Property: enhanced [35S]GTPyS binding for the Lys251 receptor as compared to the Asn251 receptor (%)

Smiles representation	Assay system	Unit of measure	Result
N=C(N)N/N=C/c1c(Cl)cccc1Cl	Lys251 alpha-2AAR (Homo sapiens, UniProt P08913, N266K)	%	72
CCN1CCc2nc(N)oc2CC1	Lys251 alpha-2AAR (Homo sapiens, UniProt P08913, N266K)	%	45

* * *

Target: wild-type alpha-2CAR (Homo sapiens, UniProt P18825, L239R/R446P/S401I)
Sequence (P18825 whole entry L239R/S401I/R446P): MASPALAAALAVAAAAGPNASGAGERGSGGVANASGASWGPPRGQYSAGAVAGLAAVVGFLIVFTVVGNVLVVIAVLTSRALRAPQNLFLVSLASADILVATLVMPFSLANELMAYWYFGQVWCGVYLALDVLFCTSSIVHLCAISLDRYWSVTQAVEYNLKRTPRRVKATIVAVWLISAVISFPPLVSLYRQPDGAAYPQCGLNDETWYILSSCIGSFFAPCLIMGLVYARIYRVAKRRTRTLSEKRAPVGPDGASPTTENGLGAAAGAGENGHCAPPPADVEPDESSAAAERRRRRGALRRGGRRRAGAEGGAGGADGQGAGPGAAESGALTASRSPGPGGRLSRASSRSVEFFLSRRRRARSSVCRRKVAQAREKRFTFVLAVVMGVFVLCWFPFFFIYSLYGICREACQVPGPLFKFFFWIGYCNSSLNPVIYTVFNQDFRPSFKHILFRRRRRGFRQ
Assay: Inhibition of forskolin-stimulated adenylyl cyclase, CHO cell membranes
Format: biochemical
Set-up: expressed in transfected cells; membranes or intact cells
Details: CHO line expressing 1570 ± 79.9 fmol/mg

Compound	Unit of measure	Max Inhibition (%) of adenylyl cyclase
N=C(N)N/N=C/c1c(Cl)cccc1Cl	%	53.8
Clc1cccc(Cl)c1N=C1NCCN1	%	38.5
CCN1CCc2nc(N)oc2CC1	%	56.8
Brc1c(NC2=NCCN2)ccc2nccnc12	%	67.6
Cc1cc(C(C)(C)C)c(O)c(C)c1CC1=NCCN1	%	27.0
NC[C@H](O)c1ccc(O)c(O)c1 [norepinephrine]	%	76.6

* * *

Biological target: wild-type alpha-2CAR (Homo sapiens)
Construct: expressed in transfected cells; membranes or intact cells
Assay: Inhibition of forskolin-stimulated adenylyl cyclase, CHO cell membranes
Format: biochemical
Conditions: CHO line expressing 1570 ± 79.9 fmol/mg
Property: EC50 (nM)

Molecule	Unit of measure	Result
CCN1CCc2nc(N)oc2CC1 [BHT-933]	nM	5500
